Cited source for all entries: patent US20230078764A1

Biological target: human SCD1 (Homo sapiens, UniProt O00767)
Construct: expressed in transfected cells; host or cells: yeast strain with OLE1 deleted, plasmid-borne human SCD1 (selected in SD-Ura)
Sequence (O00767 1-359): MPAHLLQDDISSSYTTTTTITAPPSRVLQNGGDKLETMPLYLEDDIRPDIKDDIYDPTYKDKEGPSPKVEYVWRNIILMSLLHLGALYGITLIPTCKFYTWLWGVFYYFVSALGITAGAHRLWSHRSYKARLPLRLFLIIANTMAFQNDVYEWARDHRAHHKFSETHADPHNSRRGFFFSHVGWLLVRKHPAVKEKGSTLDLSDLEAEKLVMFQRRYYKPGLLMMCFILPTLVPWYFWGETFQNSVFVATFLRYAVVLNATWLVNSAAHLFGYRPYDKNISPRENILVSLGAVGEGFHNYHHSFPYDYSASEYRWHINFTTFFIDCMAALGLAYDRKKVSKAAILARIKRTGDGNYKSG
Assay: Growth inhibition of yeast strain expressing human SCD1 as sole desaturase (OLE1 deleted), OD600 readout
Assay type: cell-based
Conditions: yeast strain expressing human SCD1 as sole desaturase; growth (OD600) after 40 h at 30° C.; read-out: SCD1 IC50
Measured metric: IC50 (µM)

Compound: Cn1nc(C(=O)Nc2ccc(COc3ccc(F)c(F)c3)cn2)ccc1=O
Observed result: 31
--
Compound: Cn1ccc(C(=O)Nc2ccc(Cc3cc(F)cc(C#N)c3)cn2)n1
Observed result: 1.08

I. Cn1nc(C(=O)Nc2ccc(COc3cccc(Cl)c3)cn2)ccc1=O
II. CN1N=C(NC(=O)c2ccc(Cc3cccc(Cl)c3)cn2)CCC1=O
Field: lower IC50 | Options: I / II Pick one and reply with its label.
I
(I: 3.98 µM, II: 9.69 µM)

----------
Items are presented alongside their recorded IC50.
biological target: human SCD1 (Homo sapiens, UniProt O00767); construct: expressed in transfected cells; host or cells: yeast strain with OLE1 deleted, plasmid-borne human SCD1 (selected in SD-Ura); assay: Growth inhibition of yeast strain expressing human SCD1 as sole desaturase (OLE1 deleted), OD600 readout; type: cell-based; settings: yeast strain expressing human SCD1 as sole desaturase; growth (OD600) after 40 h at 30° C.; read-out: SCD1 IC50

Reference set (8 entries):
Compound: CC(C)Cc1ccc(NC(=O)c2ccc(=O)n(C)n2)nn1 [Compound 395]
Observed result: > 45 µM
//
Compound: Cc1cc(C(=O)Nc2ccc(Cc3cccc(F)c3)cn2)nn(C)c1=O [Compound 251]
Observed result: > 45 µM
//
Compound: CN1N=C(C(=O)Nc2ccc(Cc3ccc(Cl)s3)nn2)CCC1=O [Compound 247]
Observed result: > 45 µM
//
Compound: CN1N=C(C(=O)Nc2ncc(Cc3cccc(Cl)c3)cc2F)CCC1=O [Compound 124]
Observed result: > 45 µM
//
Compound: CN1N=C(C(=O)Nc2ccc(Cc3cc(Cl)ccc3F)nn2)CCC1=O [Compound 177]
Observed result: > 45 µM
//
Compound: CN1N=C(C(=O)Nc2ccc(Cc3ccc(F)c(Cl)c3)nn2)CCC1=O [Compound 179]
Observed result: > 45 µM
//
Compound: CN1N=C(C(=O)Nc2ncc(COc3cccc(Cl)c3)s2)CCC1=O [Compound 385]
Observed result: > 45 µM
//
Compound: O=C(Nc1ccc(Cc2cccc(F)c2)cn1)c1ccc(=O)n(C2CCC2)n1 [Compound 421]
Observed result: > 45 µM

Indicate its recorded IC50; the compound in question is COc1nccc(C(=O)Nc2ccc(Cc3ccc(F)c(F)c3)cn2)n1 [Compound 486]
7.8 µM

Indicate its recorded IC50; the compound in question is N#Cc1cncc(C(=O)Nc2ccc(Cc3cccc(F)c3)cn2)c1 [Compound 579]
> 45 µM

Indicate its recorded IC50; the compound in question is Cn1cc(C(=O)Nc2ccc(Nc3cccc(Cl)c3)cn2)ccc1=O [Compound 342]
> 45 µM

Indicate its recorded IC50; the compound in question is CN1N=C(C(=O)Nc2ncc(Cc3cncc(Cl)c3)s2)CCC1=O [Compound 231]
8.93 µM

Indicate its recorded IC50; the compound in question is CN1N=C(NC(=O)c2ccc(Cc3cccc(F)c3)cn2)CCC1=O [Compound 90]
18 µM

Indicate its recorded IC50; the compound in question is Cn1c(C(=O)Nc2ccc(Cc3cc(F)cc(F)c3)cn2)coc1=O [Compound 509]
0.43 µM

Indicate its recorded IC50; the compound in question is C[C@@H](O)c1ccc(C(=O)Nc2ccc(Cc3cccc(Cl)c3)cn2)cn1 [Compound 520]
0.36 µM

Indicate its recorded IC50; the compound in question is Cn1cc(C(=O)Nc2ccc(Cc3cc(F)c(F)c(Cl)c3)cn2)ccc1=O [Compound 543]
0.037 µM

Indicate its recorded IC50; the compound in question is CN1N=C(C(=O)Nc2ccc(Cc3ccc(C#N)c(F)c3)cn2)CCC1=O [Compound 470]
> 45 µM

Indicate its recorded IC50; the compound in question is CCn1cc(C(=O)Nc2ccc(Cc3cccc(Cl)c3)cn2)cn1 [Compound 373]
0.3 µM

Indicate its recorded IC50; the compound in question is CN1N=C(C(=O)Nc2nnc(Cc3cccc(Cl)c3)o2)CCC1=O [Compound 409]
> 45 µM

Indicate its recorded IC50; the compound in question is N#Cc1cc(C(=O)Nc2ccc(Cc3ccc(F)c(F)c3)cn2)ccn1 [Compound 563]
1.1 µM

Indicate its recorded IC50; the compound in question is CNC(=O)c1ccc(C(=O)Nc2ccc(Cc3cccc(Cl)c3)cn2)cn1 [Compound 592]
> 45 µM

Indicate its recorded IC50; the compound in question is CO[C@H]1C[C@@H](C(=O)Nc2ccc(Cc3cccc(F)c3)cn2)N(C(=O)OC(C)(C)C)C1 [Compound 446]
> 45 µM

Indicate its recorded IC50; the compound in question is CN1N=C(C(=O)Nc2ncc(Cc3cccc(C#N)c3)s2)CCC1=O [Compound 209]
1.69 µM
